All figures here come from the NIST ThermoML archive (doi:10.1016/j.fluid.2006.07.015).

Entries annotated with measured activity coefficient
assay: activity coefficient (dimensionless); of the first substance listed, at infinite dilution; xn = mol fraction of the nth substance listed; conditions: 433.15 K; 101 kPa; Liquid; Chromatography; x1 = 0

// solved cases for activity coefficient follow
>>> print(df.to_string())
                                   compound         assay_readout  measured_value
0  c1ccc2ccccc2c1 [naphthalene] + CCCCCCCCCCCCCCCCCCC(CCCCCCCCCCCCCCCCCC)CCCCC(CCCCCCCCCCCCCCCCCC)CCCCCCCCCCCCCCCCCC  activity coefficient           0.386
1  C=CCCCCCCCCCC [1-dodecene] + CCCCCCCCCCCCCCCCCCC(CCCCCCCCCCCCCCCCCC)CCCCC(CCCCCCCCCCCCCCCCCC)CCCCCCCCCCCCCCCCCC  activity coefficient           0.455

Q) Can you share its activity coefficient? I mean this compound: C#CCCCCCCC [1-nonyne] + CCCCCCCCCCCCCCCCCCC(CCCCCCCCCCCCCCCCCC)CCCCC(CCCCCCCCCCCCCCCCCC)CCCCCCCCCCCCCCCCCC
A) 0.425

Q) Can you share its activity coefficient? I mean this compound: C=CCCCCCCCCCCCC [1-tetradecene] + CCCCCCCCCCCCCCCCCCC(CCCCCCCCCCCCCCCCCC)CCCCC(CCCCCCCCCCCCCCCCCC)CCCCCCCCCCCCCCCCCC
A) 0.475

---

assay: activity coefficient (dimensionless); of the first substance listed, at infinite dilution; xn = mol fraction of the nth substance listed; conditions: 418.15 K; 101 kPa; Liquid; Chromatography; x1 = 0
Entries annotated with measured activity coefficient
Reply: number alone, nothing else.

// solved cases for activity coefficient follow
molecule	measured value
CCCCCCCCCCCC [dodecane] + CCCCCCCCCCCCCCCCCCC(CCCCCCCCCCCCCCCCCC)CCCCC(CCCCCCCCCCCCCCCCCC)CCCCCCCCCCCCCCCCCC	0.46
C[C@H]1CC[C@@H](C)CC1 [cis-1,4-dimethylcyclohexane] + CCCCCCCCCCCCCCCCCCC(CCCCCCCCCCCCCCCCCC)CCCCC(CCCCCCCCCCCCCCCCCC)CCCCCCCCCCCCCCCCCC	0.296
C1CC[C@@H]2CCC[C@H]2C1 [trans-bicyclo[4.3.0]nonane] + CCCCCCCCCCCCCCCCCCC(CCCCCCCCCCCCCCCCCC)CCCCC(CCCCCCCCCCCCCCCCCC)CCCCCCCCCCCCCCCCCC	0.273
CCC(C)CC(C)C (stereo unspecified) [2,4-dimethylhexane] + CCCCCCCCCCCCCCCCCCC(CCCCCCCCCCCCCCCCCC)CCCCC(CCCCCCCCCCCCCCCCCC)CCCCCCCCCCCCCCCCCC	0.398

Q) Can you share its activity coefficient? I mean this molecule: C1CC[C@H]2CCCC[C@@H]2C1 [trans-decahydronaphthalene] + CCCCCCCCCCCCCCCCCCC(CCCCCCCCCCCCCCCCCC)CCCCC(CCCCCCCCCCCCCCCCCC)CCCCCCCCCCCCCCCCCC
A) 0.28

Q) Can you share its activity coefficient? I mean this molecule: C=CCCCC [hex-1-ene] + CCCCCCCCCCCCCCCCCCC(CCCCCCCCCCCCCCCCCC)CCCCC(CCCCCCCCCCCCCCCCCC)CCCCCCCCCCCCCCCCCC
A) 0.357
